FYI, the data here is from ChEMBL document CHEMBL3352784.

tested.system: Somatostatin receptor type 3 (Homo sapiens)
Sequence (P32745 whole entry): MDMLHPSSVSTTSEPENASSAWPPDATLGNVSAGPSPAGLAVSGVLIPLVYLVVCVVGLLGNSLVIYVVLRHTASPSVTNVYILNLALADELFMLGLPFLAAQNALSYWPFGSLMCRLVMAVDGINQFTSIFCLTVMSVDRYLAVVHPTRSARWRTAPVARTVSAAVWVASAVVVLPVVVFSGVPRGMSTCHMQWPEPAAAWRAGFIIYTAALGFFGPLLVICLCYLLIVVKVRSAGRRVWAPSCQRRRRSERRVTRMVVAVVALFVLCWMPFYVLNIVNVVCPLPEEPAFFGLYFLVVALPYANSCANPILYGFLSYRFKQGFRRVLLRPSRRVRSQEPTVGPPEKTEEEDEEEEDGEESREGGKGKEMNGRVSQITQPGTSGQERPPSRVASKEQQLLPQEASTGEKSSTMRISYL
measured.metric: IC50 (µM)
Give the number; µM is assumed, so skip it.

Prompt line: Looking for the measured IC50 of Cn1cc(C2(c3cccc(C(=O)O)n3)N[C@@H](c3nc(-c4ccc(F)cc4)c[nH]3)Cc3c2[nH]c2ccccc32)cn1 (single isomer, unassigned; 2B) , can you help?
Response line: 0.105

Prompt line: Now consider CCOC(=O)c1ccnc([C@@]2(c3cnn(C)c3)N[C@@H](c3nc(-c4ccc(F)cc4)c[nH]3)Cc3c2[nH]c2ccccc32)c1 .
Response line: 0.0471

Prompt line: And what about the molecule CCOC(=O)c1ccc(C2(c3cnn(C)c3)N[C@@H](c3nc(-c4ccc(F)cc4)c[nH]3)Cc3c2[nH]c2ccccc32)nc1 (single isomer, unassigned; 9B) ?
Response line: 0.0316

Prompt line: Try this molecule too: Cn1cc(C2(c3cccc(C(=O)O)n3)N[C@@H](c3nc(-c4ccc(F)cc4)c[nH]3)Cc3c2[nH]c2ccccc32)cn1 (single isomer, unassigned; 2A)
Response line: 0.067

Prompt line: Same question, CCOC(=O)c1ccnc(C2(c3cnn(C)c3)N[C@@H](c3nc(-c4ccc(F)cc4)c[nH]3)Cc3c2[nH]c2ccccc32)c1 (single isomer, unassigned) this time
Response line: 0.00078

Prompt line: Same thing, different molecule: CCOC(=O)c1ccc(C2(c3cnn(C)c3)N[C@@H](c3nc(-c4ccc(F)cc4)c[nH]3)Cc3c2[nH]c2ccccc32)nc1 (single isomer, unassigned; 9A)
Response line: 0.00525
